The values you see were collected from patent US10189843B2.

Quick record of pIC50 values for UniProt:Q13822.
pIC50: −log10 of the molar value.

Query string: What does the record list as pIC50 for CCCCCC1CN(Cc2cccc3c(C(=O)O)csc23)C(=O)c2cc(-c3ccc(Cl)cc3)nn21 (stereo not shown) [Compound I-0121] ?
Result string: 7.00 to 8.00

Query string: What does the record list as pIC50 for CCCCC1CN(CC(=O)N2[C@@H]3CC[C@H]2C[C@@H](O)C3)C(=O)c2cc(-c3ccc(Cl)cc3)nn21 (stereo partly shown) [Compound I-0238] ?
Result string: 6.00 to 7.00

Query string: What does the record list as pIC50 for CNC(=O)Cc1cc(Cl)ccc1-c1cc2n(n1)[C@@H](C)CN(Cc1ccc(C#N)cc1)C2=O [Compound I-0336] ?
Result string: ≤ 6.00

Query string: What does the record list as pIC50 for O=C1NCC(COCc2ccccc2)n2nc(-c3ccc(Cl)cc3)cc21 (stereo not shown) [Compound I-0024] ?
Result string: ≤ 6.00

Query string: What does the record list as pIC50 for O=C(O)C1CCN(C(=O)CN2CC(COCC(F)(F)F)n3nc(-c4ccc(Cl)cc4)cc3C2=O)CC1 (stereo not shown) [Compound I-0318] ?
Result string: > 8.00

Query string: What does the record list as pIC50 for CCCCC1CN(Cc2ccc(C#N)cc2)C(=O)c2cc(N3Cc4ccccc4C3)nn21 (stereo not shown) [Compound I-0306] ?
Result string: ≤ 6.00

Query string: What does the record list as pIC50 for CCOC(=O)CN1C[C@H](c2ccccc2)n2nc(-c3ccc(Cl)cc3)cc2C1=O [Compound I-0021] ?
Result string: ≤ 6.00
